- ASSAY_COMMENT: Fraction unbound in mouse plasma
- Type: ADME, cell-free

STRUCTURE_AS_SMILES: Cc1cn2nc(-c3cc(=O)n4cc(N5CCNC6(CC6)C5)ccc4n3)cc(C)c2n1
fraction unbound: 0.1

----------
- ASSAY_COMMENT: Terminal half life in rat
- Format: ADME
- PROTOCOL_CONDITIONS: in vivo, read-out: beta t1/2 (converted)
RESULT_TYPE: half-life

STRUCTURE_AS_SMILES: CCc1nc(C)cn2nc(-c3cc(=O)n4cc(C5CCN(C)CC5)cc(C)c4n3)cc12
READOUT_VALUE: 19 h

----------
- STUDY_SYSTEM: UniProtKB Q12809
- Sequence (Q12809 whole entry): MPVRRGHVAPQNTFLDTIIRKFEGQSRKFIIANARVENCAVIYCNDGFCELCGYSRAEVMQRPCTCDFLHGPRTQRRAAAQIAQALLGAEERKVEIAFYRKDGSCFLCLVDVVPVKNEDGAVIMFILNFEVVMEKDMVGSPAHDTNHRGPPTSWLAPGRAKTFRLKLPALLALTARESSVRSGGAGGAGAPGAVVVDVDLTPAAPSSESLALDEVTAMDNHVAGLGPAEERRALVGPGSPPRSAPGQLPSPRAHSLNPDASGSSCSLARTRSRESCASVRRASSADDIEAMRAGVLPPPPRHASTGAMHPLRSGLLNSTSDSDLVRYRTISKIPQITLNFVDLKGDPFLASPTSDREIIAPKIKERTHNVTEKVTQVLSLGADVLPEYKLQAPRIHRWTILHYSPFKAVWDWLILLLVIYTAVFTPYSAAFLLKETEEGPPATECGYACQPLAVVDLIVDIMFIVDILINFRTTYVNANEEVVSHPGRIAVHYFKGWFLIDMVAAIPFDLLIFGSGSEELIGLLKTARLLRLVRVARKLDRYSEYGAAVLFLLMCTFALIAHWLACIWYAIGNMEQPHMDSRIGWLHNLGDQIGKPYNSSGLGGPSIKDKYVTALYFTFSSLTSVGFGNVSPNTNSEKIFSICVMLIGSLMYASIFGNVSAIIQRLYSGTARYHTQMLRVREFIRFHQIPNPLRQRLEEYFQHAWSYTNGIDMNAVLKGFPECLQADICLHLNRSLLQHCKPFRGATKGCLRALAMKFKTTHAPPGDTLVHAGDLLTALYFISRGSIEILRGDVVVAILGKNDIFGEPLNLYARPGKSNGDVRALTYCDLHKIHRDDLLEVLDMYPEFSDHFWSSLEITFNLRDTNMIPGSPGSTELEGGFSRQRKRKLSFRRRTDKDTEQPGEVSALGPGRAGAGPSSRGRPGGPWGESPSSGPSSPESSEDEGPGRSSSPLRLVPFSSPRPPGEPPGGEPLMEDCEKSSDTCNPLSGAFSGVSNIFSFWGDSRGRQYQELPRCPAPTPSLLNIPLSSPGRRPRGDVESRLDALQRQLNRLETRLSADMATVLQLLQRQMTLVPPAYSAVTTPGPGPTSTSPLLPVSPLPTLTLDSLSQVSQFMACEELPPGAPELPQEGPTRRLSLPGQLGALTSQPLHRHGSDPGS

STRUCTURE_AS_SMILES: CCc1nc(C)cn2nc(-c3cc(=O)n4cc(C5CCN(C)CC5)cc(C)c4n3)cc12
IC50 / nM: 1800

----------
- ASSAY_COMMENT: Effect on FOXM1b/c mRNA splicing in human induced pluripotent stem cells by RT-qPCR analysis
- Type: ADME
- PROTOCOL_CONDITIONS: Homo sapiens
pIC50: −log10 of the molar value.
Below is a list of entries, each paired with its recorded pIC50 value.

STRUCTURE_AS_SMILES: CCc1nc(C)cn2nc(-c3cc(=O)n4cc(C5CCN(C)CC5)cc(C)c4n3)cc12
pIC50: 5.73
//
STRUCTURE_AS_SMILES: Cc1cn2nc(-c3cc(=O)n4cc(N5CCNC6(CC6)C5)ccc4n3)cc(C)c2n1
pIC50: 6.95

----------
- Species: Homo sapiens
- ASSAY_COMMENT: Activation of human full length SMN2 mRNA expressed in human SMA-derived fibroblasts by RT-qPCR analysis

COMPOUND: Cc1cn2nc(-c3cc(=O)n4cc(N5CCN6CCC[C@H]6C5)ccc4n3)ccc2n1
UNIT_TAG: nM
OP: =
EC1.5: 3
//
COMPOUND: Cc1cn2nc(-c3cc(=O)n4cc(N5CCN6CCC[C@H]6C5)ccc4n3)cc(C)c2n1
UNIT_TAG: nM
OP: =
EC1.5: 2
//
COMPOUND: CCc1nc(C)cn2nc(-c3cc(=O)n4cc(N5CCN6CCC[C@H]6C5)ccc4n3)cc12
UNIT_TAG: nM
OP: =
EC1.5: 40
//
COMPOUND: CCc1nc(C)cn2nc(C3=CC(=O)N4C=C(C5CCNCC5)C=C(C)C4N3)cc12 (centres undefined)
UNIT_TAG: nM
OP: <
EC1.5: 2

----------
- ASSAY_COMMENT: Volume of distribution at steady state in rat at 2 mg/kg, iv administered as single dose
- Type: ADME, organism-based
- PROTOCOL_CONDITIONS: in vivo, read-out: Vdss
RESULT_TYPE: Vd (L/kg)

STRUCTURE_AS_SMILES: CCc1nc(C)cn2nc(-c3cc(=O)n4cc(C5CCN(C)CC5)cc(C)c4n3)cc12
READOUT_VALUE: 29

----------
- ASSAY_COMMENT: Clearance in cynomolgus monkey at 0.1 mg/kg, iv administered as single dose
- Assay type: ADME, organism-based, Macaca fascicularis
- PROTOCOL_CONDITIONS: in vivo
RESULT_TYPE: clearance (mL/min/kg)

STRUCTURE_AS_SMILES: Cc1cn2nc(-c3cc(=O)n4cc(N5CCNC6(CC6)C5)ccc4n3)cc(C)c2n1
READOUT_VALUE: 5.7
